System: stabilised thylakoid membranes
Experiment: Inhibition of photosynthetic efficiency of stabilised thylakoid membranes measured by fluorescence (F2-F1)/F2
Assay type: biochemical, spinach
Conditions: Buffer 1 + 5 mM MgCl2 (in cuvette)
experimental.endpoint: Threshold (mg/L)
Express your answer in mg/L, writing the number without its unit.

In plain terms, `CCNc1nc(Cl)nc(NCC)n1` has a documented Threshold of 0.06

In plain terms, `CC(C)Nc1nc(N)nc(Cl)n1` has a documented Threshold of 0.2

In plain terms, `CCNc1nc(Cl)nc(NC(C)(C)C#N)n1` has a documented Threshold of 0.0006

In plain terms, `CN(C)C(=O)Nc1ccc(Cl)c(Cl)c1` has a documented Threshold of 0.002

In plain terms, `CCNc1nc(Cl)nc(NC(C)C)n1` has a documented Threshold of 0.001

In plain terms, `CCC(=O)Nc1ccc(Cl)c(Cl)c1` has a documented Threshold of 0.0006

----------
Provide the recorded Threshold for the entries that follow.
Test system: stabilised thylakoid membranes
Experiment: Inhibition of photosynthetic efficiency of stabilised thylakoid membranes measured by fluorescence (F2-F1)/F2
Format: biochemical, spinach
Conditions: Buffer 1 + 5 mM MgCl2 (in cuvette)

In plain terms, `N#Cc1cc(Br)c(O)c(Br)c1` has a documented Threshold of >0.1 mg/L

In plain terms, `CCNc1nc(N)nc(Cl)n1` has a documented Threshold of >0.1 mg/L

In plain terms, `CC(C)N1C(=O)c2ccccc2NS1(=O)=O` has a documented Threshold of >4 mg/L
